Test system: Fusarium oxysporum
ASSAY_NAME: Synergistic Growth Inhibition Assay (MIC / FIC index, resazurin, 96-well) on Fusarium oxysporum
Assay type: cell-based
MEASUREMENT_PARAMETERS: Fusarium oxysporum, 48 h, Compound B alone; Fusarium oxysporum; incubation period of 48 hours; read-out: MIC (B)
MEASUREMENT_NAME: MIC (µg/mL)
Give just the number in µg/mL; leave the unit off.

Worked cases, answers included:
COMPOUND	NUMERIC_VALUE
CCCCCC(O)CC(=O)O (stereo not shown) [3-hydroxyoctanoic acid]	1250
CCCCC(O)C(=O)O (stereo not shown) [2-hydroxyhexanoic acid]	2500
CCC(O)C(=O)O (stereo not shown) [2-hydroxybutyric acid]	5000

-- ask Entry under review: CCCCCCC(O)C(=O)O (stereo not shown) [2-hydroxyoctanoic acid] . Reported MIC?
-- reply 625

====

Test system: Botrytis cinerea
ASSAY_NAME: Synergistic Growth Inhibition Assay (MIC / FIC index, resazurin, 96-well) on Botrytis cinerea
Type: cell-based
MEASUREMENT_PARAMETERS: Compound A alone; Botrytis cinerea; incubation period of 48 hours
Please note: MIC (A) exactly at 100 µg/mL is Condition not met. Only values below 100 µg/mL get Condition met.

Some solved cases for reference:
MOLECULE	TESTED_TARGET	LABEL_CLASS
Cc1cc(C(F)(F)F)nn1CC(=O)N1CCC(c2nc(C3=NOC(c4c(F)cccc4F)C3)cs2)CC1 (stereo not drawn) [Oxathiapiprolin, reference compound]	Botrytis cinerea	Condition not met
CC(C)(C)C(O)(CCc1ccc(Cl)cc1)Cn1cncn1 (stereo not drawn) [Tebuconazole, reference compound]	Botrytis cinerea	Condition not met
CO/C=C(/C(=O)OC)c1ccccc1Oc1cc(Oc2ccccc2C#N)ncn1 [Azoxystrobin, reference compound]	Botrytis cinerea	Condition not met
C=C(C)[C@@H]1CCC2=CC(=O)C[C@@H](C)[C@]2(C)C1 [Nootkatone (+)]	Botrytis cinerea	Condition not met
CC(C)C1C2CCC1c1c(NC(=O)c3cn(C)nc3C(F)F)cccc12 (stereo not drawn) [Isopyrazam, reference compound]	Botrytis cinerea	Condition met

-- ask Quick check: does CO/C=C(/C(=O)OC)c1ccccc1COc1cccc(C(F)(F)F)n1 [Picoxystrobin, reference compound] have MIC (A) under 100 µg/mL?
-- reply Condition not met
